Taken from PubChem BioAssay (Tox21).

target: D(2) dopamine receptor (Homo sapiens); test: Dopamine D2 receptor (DRD2) small molecule antagonists, cell-based qHTS assay (AID 1963595); conditions: HEK293-DRD2 cAMP HTRF antagonist mode; series mostly up to 92.4 µM
Inconclusive results are not listed. Activity calls are given as the source filed them. The call rests on the fitted dose curve; in most records, active means well fitted inhibition curve with a large enough effect in the signal ratio in the repeat runs, with a control signal flat; inconclusive means weak or mixed curves, or effect the other way; inactive means flat fitted curve, though single readings scatter; the % refers to the signal ratio. Peptide text beside a SMILES is read from it.
ENDPOINT_NAME: outcome

See these solved cases before continuing.
1. CN(N=O)C(=O)N[C@@H]1[C@@H](O)[C@H](O)[C@@H](CO)O[C@@H]1O = inactive
2. C/C=C/c1ccc(O)c(OC)c1 = inactive
3. CC(=O)OCC(=O)[C@@]12N=C(C)O[C@@H]1C[C@H]1[C@@H]3CCC4=CC(=O)C=C[C@]4(C)[C@H]3[C@@H](O)C[C@@]12C = inactive
4. O=C1C(N(CO)C(=O)NCO)N(CO)C(=O)N1CO (centres undefined) = inactive
5. COc1ccc(C)cc1N = inactive
6. Cc1c(C(N)=O)cc([N+](=O)[O-])cc1[N+](=O)[O-] = inactive
7. NC=O = inactive
8. CC(=O)/C=C/C1=C(C)CCCC1(C)C = inactive
9. O=C(O)c1ccc2c(c1)C(=O)OC2=O = inactive
10. CC(C)(Oc1ccc(Cl)cc1)C(=O)O = inactive

Asked: Reported outcome for COC(=O)[C@H]1[C@H]2C[C@@H]3c4[nH]c5cc(OC)ccc5c4CCN3C[C@H]2C[C@@H](OC(=O)c2cc(OC)c(OC)c(OC)c2)[C@@H]1OC : what is it?
Given back: inactive

Asked: Any idea what outcome was measured for NCCCCCCN ?
Given back: inactive

Asked: Fill in the blank: the reported outcome of CCCCCCCCCCCCCO is ____.
Given back: inactive

Asked: For the compound shown here, NC(=O)c1ncn([C@@H]2O[C@H](CO)[C@@H](O)[C@H]2O)n1 , give the reported outcome.
Given back: inactive

Asked: Entry CC(=O)O[C@]1(C(C)=O)CC[C@H]2[C@@H]3C[C@H](C)C4=CC(=O)CC[C@]4(C)[C@H]3CC[C@@]21C : reported outcome = ?
Given back: inactive

Asked: Report outcome for CCCCCCCCCCCCCC(=O)O please.
Given back: inactive

Asked: I'd like to know its outcome. The compound in question is COC(=O)[C@H](Cc1ccccc1)NC(=O)[C@@H](N)CC(=O)O (H-Asp-Phe-OMe)
Given back: inactive

Asked: Please report the recorded outcome for CC(=O)Nc1nnc(S(N)(=O)=O)s1 .
Given back: inactive

Asked: If you can, please state the reported outcome value of c1ccc(OCCOc2ccccc2)cc1 .
Given back: inactive

Asked: Data request, read-out outcome, for CCCCCCCCC(=O)O
Given back: inactive
